I'd be grateful if you could share measured MIC values, Pasteurella multocida CVCC399 for these entries.
- Test system: Pasteurella multocida CVCC399
- EXPERIMENT_NOTES: in vitro susceptibility, MIC by mini broth dilution
- Format: cell-based
- STATED_CONDITIONS: strain CVCC399
Numbers only, in ug/mi.

MIC values, Pasteurella multocida CVCC399 reported for this compound CCCN1C[C@H](C)[C@@H](O)[C@](C)(O)[C@@H](CC)OC(=O)[C@H](C)[C@@H](O[C@H]2C[C@@](C)(OC)[C@](O)(CNc3ccc(Cl)cc3Cl)[C@H](C)O2)[C@H](C)[C@@H](O[C@@H]2O[C@H](C)C[C@H](N(C)C)[C@H]2O)[C@](C)(O)C[C@H]1C [syzx-231] : 0.5

MIC values, Pasteurella multocida CVCC399 reported for this compound CCCN1C[C@H](C)[C@@H](O)[C@](C)(O)[C@@H](CC)OC(=O)[C@H](C)[C@@H](O[C@H]2C[C@@](C)(OC)[C@](O)(CNCc3ccccc3F)[C@H](C)O2)[C@H](C)[C@@H](O[C@@H]2O[C@H](C)C[C@H](N(C)C)[C@H]2O)[C@](C)(O)C[C@H]1C [syzx-192] : 4

MIC values, Pasteurella multocida CVCC399 reported for this compound CCCN1C[C@H](C)[C@@H](O)[C@](C)(O)[C@@H](CC)OC(=O)[C@H](C)[C@@H](O[C@H]2C[C@@](C)(OC)[C@](O)(CNC(CC)CO)[C@H](C)O2)[C@H](C)[C@@H](O[C@@H]2O[C@H](C)C[C@H](N(C)C)[C@H]2O)[C@](C)(O)C[C@H]1C (stereo partly shown) [syzx-151] : 0.5

MIC values, Pasteurella multocida CVCC399 reported for this compound CC[C@H]1OC(=O)[C@H](C)[C@@H](O[C@H]2C[C@@](C)(OC)[C@](O)(CNC(C)C(C)(C)C)[C@H](C)O2)[C@H](C)[C@@H](O[C@@H]2O[C@H](C)C[C@H](N(C)C)[C@H]2O)[C@](C)(O)C[C@@H](C)NC[C@H](C)[C@@H](O)[C@]1(C)O (stereo partly shown) [syzx-100] : 0.5

Field: MIC values, Pasteurella multocida CVCC399. Fill in for each record below.
1. CCCN1C[C@H](C)[C@@H](O)[C@](C)(O)[C@@H](CC)OC(=O)[C@H](C)[C@@H](O[C@H]2C[C@@](C)(OC)[C@](O)(CNCCc3ccc(S(N)(=O)=O)cc3)[C@H](C)O2)[C@H](C)[C@@H](O[C@@H]2O[C@H](C)C[C@H](N(C)C)[C@H]2O)[C@](C)(O)C[C@H]1C [syzx-161]
2. CC[C@H]1OC(=O)[C@H](C)[C@@H](O[C@H]2C[C@@](C)(OC)[C@](O)(CNCCCCl)[C@H](C)O2)[C@H](C)[C@@H](O[C@@H]2O[C@H](C)C[C@H](N(C)C)[C@H]2O)[C@](C)(O)C[C@@H](C)NC[C@H](C)[C@@H](O)[C@]1(C)O [syzx-75]

*A*
1. 0.5
2. 8

The measurements presented in this section are drawn from patent US9765105B2.
